The values you see were collected from patent US8754057B2.

- Test system: lamina cribrosa cell line #506
- ASSAY PROCEDURE: Hoescht staining apoptosis of siRNA-transfected lamina cribrosa cells treated with TNF-α and camptothecin
- Format: cell-based, human
- EXPERIMENTAL CONDITIONS: LC #506, 72 h after siRNA transfection, 24 h 10 ng/ml TNF-α plus 50 μM camptothecin
Give reduce apoptosis of LC cells for every item shown.
Returns: string containing the number followed by the unit.

// lookup reduce apoptosis of LC cells for siRNA #4: siRNA against human apoptosis-specific eIF-5A (SEQ ID NO:33); target 5′ AAGCTGGACTCCTCCTACACA 3′ (SEQ ID NO: 84) (AAGCTGGACTCCTCCTACACAAT; listed as DNA, chemistry not fully specified; listed as Homo sapiens)
69%

Next record, please: siRNA #3: siRNA against human apoptosis-specific eIF-5A (SEQ ID NO:32); target 5′ AAGGTCCATCTGGTTGGTATT 3′ (SEQ ID NO: 83) (AAGGUCCAUCUGGUUGGUAUUGA; unmodified RNA; listed as Homo sapiens)
50%

Next record, please: siRNA #1: siRNA against human apoptosis-specific eIF-5A (SEQ ID NO:30); target 5′ AAAGGAATGACTTCCAGCTGA 3′ (SEQ ID NO: 81) (AAAGGAAUGACUUCCAGCUGATT; RNA, all phosphodiester, T or U not given here; listed as Homo sapiens)
59%

Next record, please: siRNA #2: siRNA against human apoptosis-specific eIF-5A (SEQ ID NO:31); target 5′ AAGATCGTCGAGATGTCTACT 3′ (SEQ ID NO: 82) (AAGAUCGUCGAGAUGUCUACUUC; unmodified RNA; listed as Homo sapiens)
35%
